- EXPERIMENTAL TARGET: PDE1B (Homo sapiens)
- EXPERIMENTAL PROTOCOL: In vitro HTRF PDE1 inhibition assay (PDE1B)
- Type: biochemical
- TEST SETTINGS: in vitro PDE1B HTRF Assay; read-out: IC50
pIC50: −log10 of the molar value.
Would you mind telling me the reported pIC50 of each entry?

Batch request: pIC50 per item, same order as input.
1. Cn1c(N2CC[C@H](Oc3ccc(F)cn3)C2)nn2c(C3CCOCC3)ncc2c1=O [Example 190]
2. CCn1c(OC[C@H]2CC[C@H](C(F)(F)F)CC2)nn2c(C3CCOCC3)ncc2c1=O [Example 251]
3. COc1ccc(Cn2c(OC)nn3c(C4CCOCC4)ncc3c2=O)cc1 [Example 265]
4. CC(C)Oc1nn2c(C3CCOCC3)ncc2c(=O)n1CC1CCC(F)(F)CC1 [Example 103]
5. CCn1c(OCCc2ccccc2F)nn2c(C3CCOCC3)ncc2c1=O [Example 74]

1. > 6.00
2. > 6.00
3. > 6.00
4. > 6.00
5. > 6.00

---

- EXPERIMENTAL PROTOCOL: Evaluation of bioavailability, PK test in rats
- Assay type: in vivo
- TEST SETTINGS: rat; 7 week-old SD rats, intravenous vs oral administration, plasma LC-MS
- Description: This test can be used to assess pharmacokinetics of the compounds of the present invention. […] The plasma was obtained from each blood, and the concentration of each compound in the plasma was measured with an LC-MS to calculate each pharmacokinetic parameter based on the concentration change.
fulfilled means recorded bioavailability is 20% or above; not fulfilled means it is below 20%.

# count of solved cases: 4
Cn1c(OC[C@H]2CC[C@H](C(F)(F)F)CC2)nn2c(C3CCOCC3)ncc2c1=O [Example 245]; fulfilled
CC(C)c1ncc2c(=O)n(C)c(NCc3ccc(Cl)cn3)nn12 [Example 149]; fulfilled
CCOC[C@H]1CC[C@H](Oc2nn3c(C4CCOCC4)ncc3c(=O)n2C)CC1 [Example 256]; not fulfilled
COc1nn2c(C3CCOCC3)ncc2c(=O)n1CC1CCC(F)(F)CC1 [Example 115]; not fulfilled

In plain terms: is recorded bioavailability at least 20% for CCn1c(OCC2CCC(F)(F)CC2)nn2c(C3CCOCC3)ncc2c1=O [Example 1] ? fulfilled

In plain terms: is recorded bioavailability at least 20% for CCOC[C@H]1CC[C@H](COc2nn3c(C4CCOCC4)ncc3c(=O)n2C)CC1 [Example 288] ? fulfilled

In plain terms: is recorded bioavailability at least 20% for CCO[C@H]1CC[C@H](COc2nn3c(C4CCOCC4)ncc3c(=O)n2C)CC1 [Example 246] ? fulfilled

---

- EXPERIMENTAL TARGET: PDE1B (Homo sapiens, UniProt Q01064)
- Sequence (Q01064 whole entry): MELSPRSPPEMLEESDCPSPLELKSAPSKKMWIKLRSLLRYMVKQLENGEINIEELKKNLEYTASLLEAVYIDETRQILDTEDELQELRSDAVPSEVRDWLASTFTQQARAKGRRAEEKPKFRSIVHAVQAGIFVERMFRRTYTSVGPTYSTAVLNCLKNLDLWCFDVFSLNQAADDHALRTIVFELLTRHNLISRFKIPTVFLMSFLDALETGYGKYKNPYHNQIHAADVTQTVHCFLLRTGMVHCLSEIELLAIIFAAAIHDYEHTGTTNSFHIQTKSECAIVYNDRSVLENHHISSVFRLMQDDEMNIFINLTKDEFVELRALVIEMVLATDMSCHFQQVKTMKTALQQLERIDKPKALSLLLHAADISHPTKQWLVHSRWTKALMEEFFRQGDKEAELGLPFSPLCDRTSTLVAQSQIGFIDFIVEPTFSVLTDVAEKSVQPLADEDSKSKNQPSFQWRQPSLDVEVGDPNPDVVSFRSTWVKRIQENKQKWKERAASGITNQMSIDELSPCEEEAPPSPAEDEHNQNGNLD
- EXPERIMENTAL PROTOCOL: In vitro HTRF PDE1 inhibition assay (PDE1B)
- Type: biochemical
- TEST SETTINGS: in vitro PDE1B HTRF Assay; read-out: IC50
PARAMETER MEASURED: IC50

CCn1c(OCCCc2ncccc2C)nn2c(C3CCOCC3)ncc2c1=O; < 1000 nM
CC(C)c1ncc2c(=O)n(C)c(NC3CCCc4cc(C#N)ccc43)nn12 (stereo not shown); < 1000 nM
CCOC[C@H]1CC[C@@H](Oc2nn3c(C4CCOCC4)ncc3c(=O)n2CC)CC1; < 1000 nM

Looking up Cn1c(OC[C@H]2CC[C@H](C(F)(F)F)CC2)nn2c(C3(O)CCOCC3)ncc2c1=O , I see its IC50 listed as 1000 to 10000 nM

---

- EXPERIMENTAL TARGET: PDE1B (Homo sapiens, UniProt Q01064)
- EXPERIMENTAL PROTOCOL: In vitro HTRF PDE1 inhibition assay (PDE1B)
- Format: biochemical
- TEST SETTINGS: in vitro PDE1B HTRF Assay; read-out: IC50
pIC50: −log10 of the molar value.
Would you mind telling me the reported pIC50 of each entry?

CCn1c(OCCc2ccc(C(F)(F)F)cc2)nn2c(C3CCOCC3)ncc2c1=O [Example 78]; > 6.00
Cn1c(COc2ccc(F)cc2)nn2c(C3CCCC3)ncc2c1=O [Example 228]; 5.00 to 6.00
CN(C)C(=O)C1CCN(c2nn3c(C4CCOCC4)ncc3c(=O)n2C)CC1 [Example 194]; 5.00 to 6.00
COc1nn2c(C3CCOCC3)ncc2c(=O)n1CCC1CCC(F)(F)CC1 [Example 105]; > 6.00

Then this compound:
Looking up CCn1c(COc2ccc(F)cc2)nn2c(C3CCOCC3)ncc2c1=O [Example 259] , I see its pIC50 listed as > 6.00

---

- EXPERIMENTAL TARGET: PDE1A3 (Homo sapiens)
- EXPERIMENTAL PROTOCOL: In vitro SPA PDE1 inhibition assay (PDE1A3)
- Format: biochemical
- TEST SETTINGS: PDE1A3, [3H]-cGMP 100 nM
Would you mind telling me the reported IC50 of each entry?
Kindly format the answer as number then unit.

// solved cases for IC50 follow
COc1nn2c(C3CCOCC3)ncc2c(=O)n1CC1CCC(F)(F)CC1 [Example 115]; 0.034 µM
CC(C)c1ncc2c(=O)n(C)c(NCc3ccc(Cl)cn3)nn12 [Example 149]; 0.144 µM
COc1nn2c(C3CCOCC3)ncc2c(=O)n1Cc1ccc(Cl)cc1 [Example 109]; 0.023 µM
CCOC[C@H]1CC[C@H](COc2nn3c(C4CCOCC4)ncc3c(=O)n2C)CC1 [Example 288]; 0.08 µM
Cn1c(OC[C@H]2CC[C@H](C(F)(F)F)CC2)nn2c(C3CCOCC3)ncc2c1=O [Example 245]; 0.113 µM

Batch request: IC50 per item, same order as input.
1. CCn1c(OC[C@H]2CC[C@H](OC)CC2)nn2c(C3CCOCC3)ncc2c1=O [Example 91]
2. CCO[C@H]1CC[C@H](COc2nn3c(C4CCOCC4)ncc3c(=O)n2C)CC1 [Example 246]
3. CNc1nn2c(C3CCOCC3)ncc2c(=O)n1Cc1ccccc1 [Example 200]
4. CCn1c(OCC2CCC(F)(F)CC2)nn2c(C3CCOCC3)ncc2c1=O [Example 1]

1: 0.074 µM; 2: 0.289 µM; 3: 0.133 µM; 4: 0.22 µM

---

- EXPERIMENTAL TARGET: PDE1C (Homo sapiens, UniProt Q14123)
- EXPERIMENTAL PROTOCOL: In vitro SPA PDE1 inhibition assay (PDE1C)
- Type: biochemical
- TEST SETTINGS: [3H]-cGMP 100 nM
Would you mind telling me the reported IC50 of each entry?
Answers are plain numbers, in µM.

CNc1nn2c(C3CCOCC3)ncc2c(=O)n1Cc1ccccc1 [Example 200]; 0.024
CCc1nn2c(C3CCOCC3)ncc2c(=O)n1CC1CCC(F)(F)CC1 [Example 239]; 0.125
CCO[C@H]1CC[C@H](COc2nn3c(C4CCOCC4)ncc3c(=O)n2C)CC1 [Example 246]; 0.788
Cn1c(OC[C@H]2CC[C@H](C(F)(F)F)CC2)nn2c(C3CCOCC3)ncc2c1=O [Example 245]; 0.547

Then this compound:
Looking up CCn1c(O[C@H]2CC[C@H](COC)CC2)nn2c(C3CCOCC3)ncc2c1=O [Example 317] , I see its IC50 listed as 0.194

---

Would you mind telling me the reported IC50 of each entry?
- EXPERIMENTAL TARGET: PDE1B (Homo sapiens, UniProt Q01064)
- EXPERIMENTAL PROTOCOL: In vitro HTRF PDE1 inhibition assay (PDE1B)
- Format: biochemical
- TEST SETTINGS: in vitro PDE1B HTRF Assay; read-out: IC50

// solved cases for IC50 follow
CCn1c(OCc2ccc(F)c(F)c2)nn2c(C3CCOCC3)ncc2c1=O; < 1 µM
Cn1c(OCc2ccc(-c3ccccc3)cc2)nn2c(C3CCOCC3)ncc2c1=O; < 1 µM
CC(C)c1ncc2c(=O)n(C)c(OCCc3ccncc3)nn12; < 1 µM

Batch request: IC50 per item, same order as input.
1. COc1nn2c(C3CCOCC3)nc(C)c2c(=O)n1CC1CCC(F)(F)CC1
2. CCn1c(OCc2cc(F)ccc2F)nn2c(C3CCOCC3)ncc2c1=O
3. CCO[C@H]1CC[C@H](COc2nn3c(C4CCOCC4)ncc3c(=O)n2CC)CC1
4. COc1ccc(CNc2nn3c(C(C)C)ncc3c(=O)n2C)nc1

["< 1 µM", "< 1 µM", "< 1 µM", "< 1 µM"]

---

- EXPERIMENTAL TARGET: PDE1B (Homo sapiens)
- EXPERIMENTAL PROTOCOL: In vitro HTRF PDE1 inhibition assay (PDE1B)
- Assay type: biochemical
PARAMETER MEASURED: IC50

Looking up Cc1ccc([C@H]2CCCN2c2nn3c(C(C)C)ncc3c(=O)n2C)cn1 , I see its IC50 listed as < 1 µM
